Test: Cellular cytotoxicity, LNCaP
Format: cell-based
Settings: human, LNCaP cells
Numbered stars: 1 amine (or outer) side, 2 acyl side, 3 side chain; on linkers, the order of the positions; unused ones are H or OH. Square brackets hold non-standard residues; d marks the D form. Peptide text beside a SMILES is read from it. * marks the point of attachment. X2 = CC1(C)C(=O)N(c2ccc(C#N)c(C(F)(F)F)c2)C(=S)N1c1ccc(C(=O)*)c(F)c1; X1 = O=C1CCC(N2C(=O)c3cccc(N(CC(=O)[*:2])[*:1])c3C2=O)C(=O)N1; EuK = O=C(O)CC[C@H](NC(=O)N[C@@H](CCCCN*)C(=O)O)C(=O)O; 2Nal = N[C@@H](Cc1ccc2ccccc2c1)C(=O)O
VALUE_TYPE: IC50 (µM)

• CC1(C)C(=O)N(c2ccc(C#N)c(C(F)(F)F)c2)C(=S)N1c1ccc(C(=O)NCCCC[C@H](NC(=O)CNc2cccc3c2C(=O)N(C2CCC(=O)NC2=O)C3=O)C(=O)N[C@@H](CS)C(=O)N[C@@H](CCC(N)=O)C(=O)N[C@@H](Cc2ccc(O)cc2)C(=O)N[C@@H](CC(N)=O)C(=O)N[C@@H](CCC(N)=O)C(=O)N[C@@H](Cc2ccc(O)cc2)C(=O)N[C@@H](Cc2ccc(O)cc2)C(=O)N[C@@H](Cc2ccc3ccccc3c2)C(=O)NCCCC[C@H](NC(=O)N[C@@H](CCC(=O)O)C(=O)O)C(=O)O)c(F)c1 (stereo partly shown) [Psa-AR] (H-[X1]K(X2)CQYNQYY[2Nal]-EuK) = 11.1
